- measured_on: T1, Myo2-GTD (globular tail domain of Myo2) (Saccharomyces cerevisiae (strain S288c), UniProt P19524 1152-1574)
- T1 chain: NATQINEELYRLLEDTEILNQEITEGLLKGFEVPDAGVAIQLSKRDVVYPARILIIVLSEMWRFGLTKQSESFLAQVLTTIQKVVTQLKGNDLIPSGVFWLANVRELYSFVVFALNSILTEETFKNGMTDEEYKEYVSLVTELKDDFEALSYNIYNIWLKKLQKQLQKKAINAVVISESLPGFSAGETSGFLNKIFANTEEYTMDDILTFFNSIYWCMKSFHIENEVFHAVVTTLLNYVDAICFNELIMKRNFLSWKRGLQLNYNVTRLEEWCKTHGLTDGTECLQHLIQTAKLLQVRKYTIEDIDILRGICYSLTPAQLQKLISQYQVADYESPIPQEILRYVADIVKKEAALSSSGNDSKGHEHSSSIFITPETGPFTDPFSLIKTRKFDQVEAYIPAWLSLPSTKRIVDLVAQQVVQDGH
- experiment_notes: ITC
binders and their reported Kd
Dear colleague, please return just the value in µM, with no unit written.

## Input Bench note: what Kd did NHGFHLDILKGRK [Inp2] show?
## Output 32

## Input Also check SSSSIATTGSQESFVARPFKKGLNLHSIKVTSSTPK (domain or fragment) [Smy1-MIS (Myo2-interacting sequence of Smy1)]
## Output 21

## Input Another: GNSARIPCPKTRLARVSVLDLKKIEEQPDSSSG [Mmr1]
## Output 6.8
